# assay target: JARID1B (Homo sapiens)
# Construct: The FLAG tagged full length JARID1B enzyme was expressed in Sf21 insect cells using FLAG-JARID1B baculoviruses; FLAG (N); made in house; host or cells: Sf21 insect cells (baculovirus)
# test protocol: FLAG-JARID1B histone demethylase assay with AlphaScreen detection (HTS and dose response);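 also: compound tested at 20 µM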
# Assay type: biochemical
# assay context: validation of HTS actives; effect of compound in JARID1B AlphaScreen assay
Response field label takes condition met when Assay Signal (percent) is strictly below 40% and condition not met in all other cases.

Query block: Find out if reported Assay Signal (percent) for `C=CCO[C@H]1[C@H](O)[C@H](OCC=C)[C@H](O)[C@@H](OCC=C)[C@@H]1O` is less than 40%
Result block: condition met

Continuing:
Query block: Find out if reported Assay Signal (percent) for COc1cccc(O)c1O [YU155465, 3-METHOXYCATECHOL, reference compound] is less than 40%
Result block: condition not met

Query block: Find out if reported Assay Signal (percent) for C=C[C@@H](C1=CC(=O)C(OC)=C(OC)C1=O)c1ccccc1 [YU155075, 3,4-DIMETHOXY- DALBERGIONE, reference compound] is less than 40%
Result block: condition not met

Query block: Find out if reported Assay Signal (percent) for `S=C(Nc1ccc2c(c1)OCO2)Nn1cnnc1` is less than 40%
Result block: condition met

* * *

# assay target: JARID1B (Homo sapiens, UniProt Q9UGL1)
# Construct: The FLAG tagged full length JARID1B enzyme was expressed in Sf21 insect cells using FLAG-JARID1B baculoviruses; FLAG (N); made in house; host or cells: Sf21 insect cells (baculovirus)
# Sequence (Q9UGL1 whole entry): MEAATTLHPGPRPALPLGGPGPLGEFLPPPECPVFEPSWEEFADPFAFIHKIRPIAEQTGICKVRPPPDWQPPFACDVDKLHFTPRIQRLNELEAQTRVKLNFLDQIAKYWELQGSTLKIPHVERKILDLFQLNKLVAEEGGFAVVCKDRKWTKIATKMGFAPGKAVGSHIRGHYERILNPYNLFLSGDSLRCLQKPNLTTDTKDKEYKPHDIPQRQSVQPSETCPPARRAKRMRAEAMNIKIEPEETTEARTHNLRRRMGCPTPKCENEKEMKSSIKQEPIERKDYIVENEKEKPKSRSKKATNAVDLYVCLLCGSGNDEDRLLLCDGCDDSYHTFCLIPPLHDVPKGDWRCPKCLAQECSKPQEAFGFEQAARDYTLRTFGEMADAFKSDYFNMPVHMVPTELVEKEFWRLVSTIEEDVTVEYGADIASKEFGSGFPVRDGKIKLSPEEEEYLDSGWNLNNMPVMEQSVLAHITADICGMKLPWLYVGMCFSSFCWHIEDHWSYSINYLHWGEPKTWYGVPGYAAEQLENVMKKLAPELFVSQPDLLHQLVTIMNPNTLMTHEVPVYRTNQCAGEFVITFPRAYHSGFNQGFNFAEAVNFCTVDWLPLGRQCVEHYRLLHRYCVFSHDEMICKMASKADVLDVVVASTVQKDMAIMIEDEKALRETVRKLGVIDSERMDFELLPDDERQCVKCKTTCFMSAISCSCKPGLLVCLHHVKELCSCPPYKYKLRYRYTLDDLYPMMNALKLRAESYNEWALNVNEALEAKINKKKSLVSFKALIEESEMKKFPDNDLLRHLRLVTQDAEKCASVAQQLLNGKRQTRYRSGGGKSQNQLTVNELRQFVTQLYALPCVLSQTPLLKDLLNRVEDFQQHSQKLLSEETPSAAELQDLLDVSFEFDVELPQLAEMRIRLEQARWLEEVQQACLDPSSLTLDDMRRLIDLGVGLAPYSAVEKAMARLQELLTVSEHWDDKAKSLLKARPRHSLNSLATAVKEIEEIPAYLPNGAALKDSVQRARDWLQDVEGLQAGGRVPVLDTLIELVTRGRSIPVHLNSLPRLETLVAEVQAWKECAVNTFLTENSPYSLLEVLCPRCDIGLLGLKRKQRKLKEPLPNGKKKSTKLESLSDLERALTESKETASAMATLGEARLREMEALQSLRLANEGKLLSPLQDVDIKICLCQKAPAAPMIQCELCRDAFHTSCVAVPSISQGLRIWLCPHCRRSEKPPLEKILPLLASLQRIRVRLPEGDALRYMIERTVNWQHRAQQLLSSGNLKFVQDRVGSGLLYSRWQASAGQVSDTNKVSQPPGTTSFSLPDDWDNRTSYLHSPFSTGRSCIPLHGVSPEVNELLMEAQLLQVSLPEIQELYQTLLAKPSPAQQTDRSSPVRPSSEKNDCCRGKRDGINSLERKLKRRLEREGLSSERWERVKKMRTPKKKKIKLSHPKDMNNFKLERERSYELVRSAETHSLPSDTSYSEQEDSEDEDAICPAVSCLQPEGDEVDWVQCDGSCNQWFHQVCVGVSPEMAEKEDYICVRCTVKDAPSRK
# test protocol: FLAG-JARID1B histone demethylase assay with AlphaScreen detection (HTS and dose response);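 also: FLAG-tagged JARID1B at 4 nM acting on a biotinylated H3K4me3 peptide, demethylation read by AlphaScreen luminescence, with hits checked against bio-H3K4me2 without enzyme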;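 also: compound tested at 20 µM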
# Type: biochemical
# assay context: assay signal minus artifact signal
Each record here notes measured Assay − Artifact Signal (percent).
Expressed in %, but write only the number.

Query block: Give reported Assay − Artifact Signal (percent) value for Cc1ccc(C(C#N)=Cc2ccc(N3CCOCC3)o2)cc1 (single isomer, unassigned) [YU149607]
Result block: 37.94

Query block: Give reported Assay − Artifact Signal (percent) value for Cl.Cn1cccc1CNCc1ccncc1 [YU145853]
Result block: 57.65

Query block: Give reported Assay − Artifact Signal (percent) value for O=C(O)c1cc(N(Cc2ccccc2O)Cc2cc(O)ccc2O)ccc1O [YU154829, LAVENDUSTIN A, reference compound]
Result block: 30.24

Query block: Give reported Assay − Artifact Signal (percent) value for N.N.[Cl][Pt][Cl] [YU034538, CISPLATIN, reference compound]
Result block: 40.64

Query block: Give reported Assay − Artifact Signal (percent) value for Cn1c(C(C#N)=Cc2ccncc2)nc2ccccc21 (single isomer, unassigned) [YU146842]
Result block: 104.16

Query block: Give reported Assay − Artifact Signal (percent) value for O=C(O)CCCSCC(=O)Nc1ccccc1 [YU146590]
Result block: 10.85

Query block: Give reported Assay − Artifact Signal (percent) value for Oc1cccc(C(=S)N2CCN(Cc3ccccc3)CC2)c1 [YU151559]
Result block: 18.39

Query block: Give reported Assay − Artifact Signal (percent) value for Cc1c2c(=O)n(-c3nc4ccccc4s3)[nH]c2cc(=O)n1Cc1ccc(C(=O)O)cc1 [YU172089]
Result block: 11.36

Query block: Give reported Assay − Artifact Signal (percent) value for C#CCCCCCCCCCCCC(O)CC(O)COC(C)=O (centres unmarked) [YU155369, AVOCADYNE ACETATE, reference compound]
Result block: 45.03

Query block: Give reported Assay − Artifact Signal (percent) value for N[C@@H](Cc1ccc(O)c(O)c1)C(=O)O [YU034332, LEVODOPA, reference compound]
Result block: 41.47

Moving on to another compound below.
Query block: Give reported Assay − Artifact Signal (percent) value for O=C(Cn1c(=O)oc2ccccc21)Nc1cccc([N+](=O)[O-])c1 [YU151591]
Result block: 14.61
